target or test system: protein kinase B, P31749
Sequence (P31749 whole entry): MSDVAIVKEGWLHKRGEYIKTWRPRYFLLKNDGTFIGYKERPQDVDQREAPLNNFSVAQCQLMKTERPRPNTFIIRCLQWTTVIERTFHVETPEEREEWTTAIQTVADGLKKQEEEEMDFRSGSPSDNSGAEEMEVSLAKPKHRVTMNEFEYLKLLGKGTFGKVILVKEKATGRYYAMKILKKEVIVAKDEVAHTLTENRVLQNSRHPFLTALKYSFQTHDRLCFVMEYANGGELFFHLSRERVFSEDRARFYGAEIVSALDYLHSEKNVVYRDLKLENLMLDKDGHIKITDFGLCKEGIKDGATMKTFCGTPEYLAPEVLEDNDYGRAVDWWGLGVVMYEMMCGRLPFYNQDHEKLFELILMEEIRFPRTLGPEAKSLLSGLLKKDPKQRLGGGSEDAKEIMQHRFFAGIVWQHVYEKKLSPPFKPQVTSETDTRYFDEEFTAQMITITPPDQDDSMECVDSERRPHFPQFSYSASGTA
test name: cell-based or functional assay
Where no end group is shown, it is not given here. Side-chain parts run from the residue outwards. [ ]: non-standard residue; d: D form. The star is where a group is joined. SO2‑IQ = 5-aminoethylsulfoneamide isoquinoline, O=S(=O)(NCCN*)c1cccc2cnccc12; S‑IQ = 5-mercaptoaminopropyl isoquinoline; Nle = CCCC[C@H](N)C(=O)O; Orn = NCCC[C@H](N)C(=O)O; Dab = NCC[C@H](N)C(=O)O; Nva = CCC[C@H](N)C(=O)O; Ava = NCCCCC(=O)O; βAla = NCCC(=O)O
recorded endpoint: PKB IC50 (nM)
One number for each entry, in nM.

Can you give me PKB IC50 for all of these, one by one?
1. RPR[Nle]E(S‑IQ)SF [PTR 6136]
2. RPRTE(SO2‑IQ)SF [PTR 6016]
3. RPR[Nva]E(S‑IQ)SF [PTR 6134]
4. RPR[Nle]E([βAla-SO2‑IQ])[Dab]F [PTR 6140]
5. RPRTE(S‑IQ)SF [PTR 6104]

Response line:
114
1000
217
413
100

Can you give me PKB IC50 for all of these, one by one?
1. RPRTE([Ava-SO2‑IQ])SF [PTR 6090]
2. RPR[Orn]E(SO2‑IQ)SF [PTR 6132]

Response line:
[5600, 20]
